These measurements were taken from paper PMC7504417.

# assay.target: oxidized glutathione (Glut OX, ECG-ECG)
# test.method.notes: UV spectrophotometry binding to oxidized glutathione
# assay.setup: UV spectrophotometry; single value, or first (higher-affinity) value of a cell a/b; read-out: Kd (µM) Glut OX ECG-ECG
Structures can show the parent of a compound that is named as a salt.
measure.name: log10 Kd (log10 of the value in µM)
Log scale reminder: Kd in µM, then log10 taken.

>  <compound>
CNC[C@H](O)c1cccc(O)c1

>  <log10 Kd>
1.08

$$$$
>  <compound>
O=C1O[C@H]([C@@H](O)CO)C(O)=C1O

>  <log10 Kd>
1.30

$$$$
>  <compound>
O=C1OC(C(O)CO)C(=O)C1=O (centres unmarked) [Dehydro Asc, dehydroascorbic acid]

>  <log10 Kd>
1.78

$$$$

Record CSCC[C@H](NC(=O)[C@H](Cc1ccccc1)NC(=O)CNC(=O)CNC(=O)[C@@H](N)Cc1ccc(O)cc1)C(=O)O . Reported log10 Kd: 2.60

Record N[C@@H](Cc1ccc(O)cc1)C(=O)O . Reported log10 Kd: 2.11

Record N[C@@H](Cc1ccccc1)C(=O)O . Reported log10 Kd: 1.95

Record CNC[C@H](O)c1ccc(O)c(O)c1 [Epinephrine, epinephrine HCl] . Reported log10 Kd: 1.80

Record NCCc1ccc(O)c(O)c1 . Reported log10 Kd: 1.95

Record NC[C@H](O)c1ccc(O)c(O)c1 [Norepinephrine, norepinephrine HCl] . Reported log10 Kd: 1.78

Record N[C@@H](Cc1ccc(O)c(O)c1)C(=O)O [L-DOPA, L-3,4-dihydroxyphenylalanine] . Reported log10 Kd: 1.70
